Tested on: 817829-284-R-J1-PDC complex spheroid viability
experiment description: Anticancer human tumor 817829-284-R-J1-PDC patient-derived colon adenocarcinoma cell line growth inhibition [POLQ]; active = viability on the fitted dose curve at most 10% of control; inactive = the rest
run conditions: second compound 1 µM; first compound 10 µM
Form entry, call: pick from Y = active, N = inactive

For CCCS(=O)(=O)Nc1ccc(F)c(C(=O)c2c[nH]c3ncc(-c4ccc(Cl)cc4)cc23)c1F + Nc1ccc(C#CCN(C(=O)Cc2ncc(C(F)(F)F)cc2C(F)(F)F)c2ccc(F)cc2)nn1 , what call appears in the results of this test?
N

Please indicate how the test categorized C#Cc1c(F)ccc2cc(O)cc(-c3ncc4c(N5CC6CCC(C5)N6)nc(OCC56CCCN5CC(F)C6)nc4c3F)c12 (centres undefined) + Nc1ccc(C#CCN(C(=O)Cc2ncc(C(F)(F)F)cc2C(F)(F)F)c2ccc(F)cc2)nn1 .
N

Identify the outcome logged in this assay for the compound shown: CC1COCCN1c1cc(C2(S(C)(=N)=O)CC2)nc(-c2ccnc3[nH]ccc23)n1 (centres undefined) + Nc1ccc(C#CCN(C(=O)Cc2ncc(C(F)(F)F)cc2C(F)(F)F)c2ccc(F)cc2)nn1
Y

Status in this test for COc1ccc([C@@H](O)c2cc(-c3ncnc4cc(N5CCOCC5)ccc34)c(F)cc2Cl)nn1 + Nc1ccc(C#CCN(C(=O)Cc2ncc(C(F)(F)F)cc2C(F)(F)F)c2ccc(F)cc2)nn1 ?
N

* * *

Assign pIC50 to each entry below.
Tested on: 817829-284-R-J1-PDC complex spheroid viability
experiment description: Anticancer human tumor 817829-284-R-J1-PDC cell line growth inhibition [POLQ];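 also: spheroids exposed to compounds for 7 days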
run conditions: curve of first compound; second compound 0.0316 µM
pIC50: −log10 of the molar value.

Write pIC50 of C=CCn1c(=O)c2cnc(Nc3ccc(N4CCN(C)CC4)cc3)nc2n1-c1cccc(C(C)(C)O)n1 + COC1C(OC(N)=O)C(O)C(Oc2ccc3c(O)c(NC(=O)c4ccc(O)c(CC=C(C)C)c4)c(=O)oc3c2C)OC1(C)C ; system used: 817829-284-R-J1-PDC complex spheroid viability
6.79

Under 817829-284-R-J1-PDC complex spheroid viability: report pIC50 of COc1cccc2c1C(=O)c1c(O)c3c(c(O)c1C2=O)CC(O)(C(=O)CO)CC3OC1CC(N)C(O)C(C)O1 (stereo not drawn) + Cc1cccc(N(C)C(=O)C2C(O)CCN2c2nc(C)cc(C(F)(F)F)c2C#N)c1 .
> 7.50

// fetch pIC50 for COc1cc2cc(C(=O)CCC(=O)O)sc2cc1OC + Cc1cccc(N(C)C(=O)C2C(O)CCN2c2nc(C)cc(C(F)(F)F)c2C#N)c1 ; system: 817829-284-R-J1-PDC complex spheroid viability
< 5.00

* * *

System: 817829-284-R-J1-PDC complex spheroid viability
experiment description: Anticancer human tumor 817829-284-R-J1-PDC cell line growth inhibition [POLQ];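 also: spheroids exposed to compounds for 7 days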;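 as to viability, T/C: 100% = DMSO vehicle-treated spheroids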
run conditions: second compound 10 µM; first compound 0.316 µM; stronger effect = lower value
Please respond with reported viability, T/C for every item in the list.
Use % as the unit, but write only the number.

Could you please provide reported viability, T/C for COc1ccc([C@@H](O)c2cc(-c3ncnc4cc(N5CCOCC5)ccc34)c(F)cc2Cl)nn1 + Nc1ccc(C#CCN(C(=O)Cc2ncc(C(F)(F)F)cc2C(F)(F)F)c2ccc(F)cc2)nn1 ? Thanks!
56.5

Kindly indicate its recorded viability, T/C. Item: C=CC(=O)N1CCN(c2nc(=O)n(-c3c(C)ccnc3C(C)C)c3nc(-c4c(O)cccc4F)c(F)cc23)C(C)C1 (stereo not given) + Nc1ccc(C#CCN(C(=O)Cc2ncc(C(F)(F)F)cc2C(F)(F)F)c2ccc(F)cc2)nn1
90.6

State its viability, T/C: CC(C)n1c(=O)n(C)c2cnc3cc(F)c(-c4ccc(OCCCN5CCCCC5)nc4)cc3c21 + COC1C(OC(N)=O)C(O)C(Oc2ccc3c(O)c(NC(=O)c4ccc(O)c(CC=C(C)C)c4)c(=O)oc3c2C)OC1(C)C
62.1

Could you please provide reported viability, T/C for CCCS(=O)(=O)Nc1ccc(F)c(C(=O)c2c[nH]c3ncc(-c4ccc(Cl)cc4)cc23)c1F + Cc1cccc(N(C)C(=O)C2C(O)CCN2c2nc(C)cc(C(F)(F)F)c2C#N)c1 ? Thanks!
66.5

Return viability, T/C (reported value) for this compound: Nc1ccn(C2OC(CO)C(O)C2(F)F)c(=O)n1 (stereo not given) + Cc1cccc(N(C)C(=O)C2C(O)CCN2c2nc(C)cc(C(F)(F)F)c2C#N)c1
5.13

* * *

System: 817829-284-R-J1-PDC complex spheroid viability
experiment description: Anticancer human tumor 817829-284-R-J1-PDC cell line growth inhibition [POLQ];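 also: spheroids exposed to compounds for 7 days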;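 as to viability, T/C: 100% = DMSO vehicle-treated spheroids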
run conditions: second compound 0.316 µM; first compound 0.0316 µM; stronger effect = lower value
Label satisfied when viability, T/C < 70%; otherwise not satisfied.

Lab log: compare recorded viability, T/C with 70%; is it strictly lower for C#Cc1c(F)ccc2cc(O)cc(-c3ncc4c(N5CC6CCC(C5)N6)nc(OCC56CCCN5CC(F)C6)nc4c3F)c12 (stereo not given) + Cc1cccc(N(C)C(=O)C2C(O)CCN2c2nc(C)cc(C(F)(F)F)c2C#N)c1 ?
satisfied

Item O=C(c1cc(Cc2n[nH]c(=O)c3ccccc23)ccc1F)N1CCN(C(=O)C2CC2)CC1 + Cc1cccc(N(C)C(=O)C2C(O)CCN2c2nc(C)cc(C(F)(F)F)c2C#N)c1 : viability, T/C beneath 70%, strictly?
not satisfied

Dear colleague, could you confirm whether viability, T/C of CCc1cc2c(N3CCc4c(cc(Cn5ccnc5)cc4-c4cn(C)nc4C(F)(F)F)C3=O)ccnc2c(OC)n1 + COC1C(OC(N)=O)C(O)C(Oc2ccc3c(O)c(NC(=O)c4ccc(O)c(CC=C(C)C)c4)c(=O)oc3c2C)OC1(C)C falls below 70%? Thanks.
not satisfied

Confirm or reject: viability, T/C of O=c1[nH]cc(F)c(=O)[nH]1 + Nc1ccc(C#CCN(C(=O)Cc2ncc(C(F)(F)F)cc2C(F)(F)F)c2ccc(F)cc2)nn1 lies strictly below 70%
not satisfied

Find out if reported viability, T/C for CC1COCCN1c1cc(C2(O)CC3CCC(C2)O3)c2cnn(-c3ccn[nH]3)c2n1 (stereo not given) + Nc1ccc(C#CCN(C(=O)Cc2ncc(C(F)(F)F)cc2C(F)(F)F)c2ccc(F)cc2)nn1 is less than 70%
satisfied

Confirm or reject: viability, T/C of CCc1c2c(nc3ccc(O)cc13)-c1cc3c(c(=O)n1C2)COC(=O)[C@]3(O)CC + Cc1cccc(N(C)C(=O)C2C(O)CCN2c2nc(C)cc(C(F)(F)F)c2C#N)c1 lies strictly below 70%
satisfied

# TODO verify viability, T/C < 70% strictly for this compound: CCc1cc2c(N3CCc4c(cc(Cn5ccnc5)cc4-c4cn(C)nc4C(F)(F)F)C3=O)cc(C)nc2c(OC)n1 + Nc1ccc(C#CCN(C(=O)Cc2ncc(C(F)(F)F)cc2C(F)(F)F)c2ccc(F)cc2)nn1
not satisfied

Please indicate whether the reported viability, T/C of COc1cccc2c1C(=O)c1c(O)c3c(c(O)c1C2=O)CC(O)(C(=O)CO)CC3OC1CC(N)C(O)C(C)O1 (stereo not given) + COC1C(OC(N)=O)C(O)C(Oc2ccc3c(O)c(NC(=O)c4ccc(O)c(CC=C(C)C)c4)c(=O)oc3c2C)OC1(C)C is strictly below 70%.
satisfied

Strictly below 70%: is that where viability, T/C of CC1COCCN1c1cc(C2(S(C)(=N)=O)CC2)nc(-c2ccnc3[nH]ccc23)n1 (stereo not given) + Cc1cccc(N(C)C(=O)C2C(O)CCN2c2nc(C)cc(C(F)(F)F)c2C#N)c1 sits?
not satisfied

* * *

Could you please report measured viability, T/C for the items listed next?
Test system: 817829-284-R-J1-PDC complex spheroid viability
experiment description: Anticancer human tumor 817829-284-R-J1-PDC cell line growth inhibition [POLQ];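 also: spheroids exposed to compounds for 7 days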;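 as to viability, T/C: 100% = DMSO vehicle-treated spheroids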
run conditions: second compound 10 µM; first compound 0.316 µM; stronger effect = lower value
// note: answer is a bare numeric in %

Let me know recorded viability, T/C for CCc1cc2c(N3CCc4c(cc(Cn5ccnc5)cc4-c4cn(C)nc4C(F)(F)F)C3=O)ccnc2c(OC)n1 + Cc1cccc(N(C)C(=O)C2C(O)CCN2c2nc(C)cc(C(F)(F)F)c2C#N)c1 , thanks.
69.1

Give the value of viability, T/C reported for the following: COc1cccc2c1C(=O)c1c(O)c3c(c(O)c1C2=O)CC(O)(C(=O)CO)CC3OC1CC(N)C(O)C(C)O1 (stereo not given) + Nc1ccc(C#CCN(C(=O)Cc2ncc(C(F)(F)F)cc2C(F)(F)F)c2ccc(F)cc2)nn1
4.32

Consider the compound COc1ccc([C@@H](O)c2cc(-c3ncnc4cc(N5CCOCC5)ccc34)c(F)cc2Cl)nn1 + Cc1cccc(N(C)C(=O)C2C(O)CCN2c2nc(C)cc(C(F)(F)F)c2C#N)c1 and give its recorded viability, T/C.
70.8

Report viability, T/C, nothing else, for this compound: CC1COCCN1c1cc(C2(S(C)(=N)=O)CC2)nc(-c2ccnc3[nH]ccc23)n1 (stereo not given) + Cc1cccc(N(C)C(=O)C2C(O)CCN2c2nc(C)cc(C(F)(F)F)c2C#N)c1
56.6

Tell me viability, T/C reported for C=CCn1c(=O)c2cnc(Nc3ccc(N4CCN(C)CC4)cc3)nc2n1-c1cccc(C(C)(C)O)n1 + COC1C(OC(N)=O)C(O)C(Oc2ccc3c(O)c(NC(=O)c4ccc(O)c(CC=C(C)C)c4)c(=O)oc3c2C)OC1(C)C
30.8
